- test: Pharmacokinetics of ginsenosides in plasma after a single oral dose of RG or BRG capsules in healthy Korean men (LC-MS/MS)
- Assay type: in vivo, human
- testParameters: male, human, plasma, po, 5 g, plasma, after single oral 5 g RG, n = 13, mean ± SD; read-out: AUC(0–t)
- Procedure: This study was designed as a randomized, open-label, single-dose, crossover study with washout every 1 week to evaluate the pharmacokinetics and safety of ginsenosides. […] All analyses were performed using an Agilent 1200 series HPLC system (Agilent) with a Luna Phenyl-Hexyl column (2.0 × 150 mm, 5 μm; Phenomenex, CA, USA). […] The content of ginsenosides in human plasma was measured using an API 5500 mass spectrometer (AB Sciex, Foster City, CA, USA) capable of multiple reaction monitoring (MRM). […]
measuredParameter: AUC(0-t)
Express your answer as a number followed by its unit.

Quick note, AUC(0-t) for CC(C)=CCC[C@](C)(O[C@@H]1O[C@H](CO[C@@H]2O[C@H](CO)[C@@H](O)[C@H](O)[C@H]2O)[C@@H](O)[C@H](O)[C@H]1O)[C@H]1CC[C@]2(C)[C@@H]1[C@H](O)C[C@@H]1[C@@]3(C)CC[C@H](O[C@@H]4O[C@H](CO)[C@@H](O)[C@H](O)[C@H]4O[C@@H]4O[C@H](CO)[C@@H](O)[C@H](O)[C@H]4O)C(C)(C)[C@@H]3CC[C@]12C [Rb1, ginsenoside Rb1] landed at 73.2 ng·h/mL
